Molecular target: GST-Met 248 PDE 4a (Homo sapiens)
Construct: phosphodiesterase IVa (met-248)
Sequence (P27815 248-886 limits assumed): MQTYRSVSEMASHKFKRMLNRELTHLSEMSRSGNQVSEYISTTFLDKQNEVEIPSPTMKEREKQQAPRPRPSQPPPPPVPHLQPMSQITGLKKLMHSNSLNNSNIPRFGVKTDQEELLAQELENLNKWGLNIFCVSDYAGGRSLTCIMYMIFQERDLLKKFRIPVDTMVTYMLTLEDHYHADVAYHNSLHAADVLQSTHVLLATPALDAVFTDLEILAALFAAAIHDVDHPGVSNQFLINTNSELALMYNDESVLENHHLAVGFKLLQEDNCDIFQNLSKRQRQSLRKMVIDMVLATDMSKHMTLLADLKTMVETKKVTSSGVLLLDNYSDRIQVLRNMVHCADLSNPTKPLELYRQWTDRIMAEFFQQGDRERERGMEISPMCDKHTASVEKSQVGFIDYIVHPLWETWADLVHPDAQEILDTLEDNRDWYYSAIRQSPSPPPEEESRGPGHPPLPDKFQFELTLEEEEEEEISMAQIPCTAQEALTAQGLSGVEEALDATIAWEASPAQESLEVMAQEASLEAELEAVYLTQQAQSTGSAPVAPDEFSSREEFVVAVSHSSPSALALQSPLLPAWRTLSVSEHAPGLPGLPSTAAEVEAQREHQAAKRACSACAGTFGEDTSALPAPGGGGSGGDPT
Assay: SPA based PDE activity assay (IC50, purified GST fusion protein of human recombinant phosphodiesterase IVa (met-248), baculovirus/Sf-9)
Settings: 100 nM cAMP, 30° C., pH 7.5, 10 min; approximated by non-linear regression of a ten point titration
Would you kindly list pIC50 for each of these molecules?
Scale explanation: pIC50 corresponds to minus log10 of a concentration expressed in moles per litre.

Query: # query: pIC50 of entry [O-][n+]1ccc(CC(c2ccc(Oc3ccc(OC(F)(F)F)cc3)nc2)c2ccc(OC(F)F)c(OC(F)F)c2)cc1 (racemic)
Result: 8.55

Query: What does the data say about its pIC50? Entry: CC(C)(Cc1ccccc1)Oc1ccc(C(Cc2cc[n+]([O-])cc2)c2ccc(OC(F)F)c(OC(F)F)c2)cn1 (racemic)
Result: 9.70

Query: Dear colleague, I am looking for the recorded pIC50 of the following molecule: [O-][n+]1ccc(CC(c2ccc(OCc3ccc(F)c(F)c3)nc2)c2ccc(OC(F)F)c(OC(F)F)c2)cc1 (racemic)
Result: 8.84

Query: What value of pIC50 has been reported for the following molecule? CC(C)(COc1ccc(C(Cc2cc[n+]([O-])cc2)c2ccc(OC(F)F)c(OC(F)F)c2)cn1)c1ccc(F)cc1 (racemic)
Result: 8.49
